# target.desc: T1, 5-Helix (HIV-1 group M subtype B, HXB2 (gp41 …, stabilised))
# T1 construct: also called designed protein based on HIV-1 gp41
# experiment.summary: ELISA
# condition.description: one partner purified
attribute.measured: F_competitive (signal with 40 nM free 5-Helix / signal without) (fraction)
Respond numerically; units are fraction and should not be typed.

Exam item: Recorded F_competitive (signal with 40 nM free 5-Helix / signal without) of 25C4 bivalent scFv on phage (scFv, V domains shown) VH: QVQLVQSGAEVRKPGASVKVSCKASGDTFSSYAISWVRQAPGQGLEWMGGIIPIFGTANYAQAFQGRVTITANESTSTAYMELSSLRSEDTAIYYCARDNPTLLGSDYWGAGTLVTVSS VL: DIQMTQSPSTLSASIGDRVTITCRASESILGSLAWYQQKPGKAPKLLIYRASHLASGAPSRFSGSGSGTDFTLTISSLQPDDFATYYCQQYSNYPLTFGGGTKLEIK , please.
Marked response: 0.1

Exam item: Recorded F_competitive (signal with 40 nM free 5-Helix / signal without) of 2H10 bivalent scFv on phage (scFv, V domains shown) VH: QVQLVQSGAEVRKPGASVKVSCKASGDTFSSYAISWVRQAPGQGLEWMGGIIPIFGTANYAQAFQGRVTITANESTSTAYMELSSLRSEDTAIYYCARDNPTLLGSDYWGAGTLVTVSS VL: DIQMTQSPSTLSASIGDRVTITCRASEDIYRSLAWYQQKPGKAPKLLISRASRLASGAPSRFSGSGSGTDFTLTISSLQPDDFATYYCQQYSNYPLTFGGGTKLEIK , please.
Marked response: 0.1

Exam item: Recorded F_competitive (signal with 40 nM free 5-Helix / signal without) of 25F12 bivalent scFv on phage (scFv, V domains shown) VH: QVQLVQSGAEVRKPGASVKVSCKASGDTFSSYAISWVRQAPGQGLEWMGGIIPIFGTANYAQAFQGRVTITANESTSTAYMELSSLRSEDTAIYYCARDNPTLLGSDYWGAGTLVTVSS VL: DIQMTQSPSTLSASIGDRVTITCRASEGIIGHLAWYQQKPGKAPKLLIYNASRLASGAPSRFSGSGSGTDFTLTISSLQPDDFATYYCQQRDDYPLTFGGGTKLEIK , please.
Marked response: 0.2

Exam item: Recorded F_competitive (signal with 40 nM free 5-Helix / signal without) of 16E3 bivalent scFv on phage (scFv, V domains shown) VH: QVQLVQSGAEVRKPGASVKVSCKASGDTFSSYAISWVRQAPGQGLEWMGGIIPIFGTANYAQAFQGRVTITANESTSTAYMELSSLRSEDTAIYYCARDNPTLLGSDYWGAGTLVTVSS VL: DIQMTQSPSTLSASIGDRVTITCRASEGIRYGLAWYQQKPGKAPKLLISRASRLASGAPSRFSGSGSGTDFTLTISSLQPDDFATYYCQQHYAYPHTFGGGTKLEIK , please.
Marked response: 0.7

Exam item: Recorded F_competitive (signal with 40 nM free 5-Helix / signal without) of 25B6 bivalent scFv on phage (scFv, V domains shown) VH: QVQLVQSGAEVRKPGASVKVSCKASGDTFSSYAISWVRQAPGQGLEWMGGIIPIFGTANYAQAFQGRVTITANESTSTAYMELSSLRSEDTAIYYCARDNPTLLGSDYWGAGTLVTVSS VL: DIQMTQSPSTLSASIGDRVTITCRASENIRSGLAWYQQKPGKAPKLLIYRASRLASGAPSRFSGSGSGTDFTLTISSLQPDDFATYYCQQYDDYPHTFGGGTKLEIK , please.
Marked response: 0.1
